Measured values drawn from PubChem BioAssay (NCI) for this set.

tested on: DU-145 prostate; assay: NCI-60 one-dose screen, 48 h (100 = growth as untreated, 0 = no growth, -100 = all killed); settings: 10 µM unless noted
The panel holds about 83,000 compounds, 20% with a hit somewhere; the sample as a whole holds those more often.
Rule: growth of 90% or more gives 1.0; anything lower gives 0.0.

Use the examples below as a reference point.
MOLECULE	SUBJECT OF TEST	CLASSIFICATION
CCCCn1c2cc(OCc3cn(-c4ccc(Cl)cc4)nn3)ccc2c2ccnc(C)c21	DU-145 prostate	0.0
Cc1nc(C)c(C)nc1C	DU-145 prostate	1.0
COc1ccc2nc(-c3ccc(Cl)cc3)cc(-c3nnc(SC/C(=N/O)c4ccccc4)o3)c2c1	DU-145 prostate	0.0

Please indicate if the recorded growth for C=C(C)[C@@H]1CC[C@]2(C(=O)OCCOCCOCC[P+](c3ccccc3)(c3ccccc3)c3ccccc3)CC[C@]3(C)[C@H](CC[C@@H]4[C@@]5(C)CC[C@H](C)C(C)(C)[C@@H]5CC[C@]43C)[C@@H]12 meets or exceeds 90%. 0.0

Param item: CSc1nc(-c2cccs2)c2c(N)[nH]nc2n1 1.0

Try CCCCCCCc1n(Cc2ccc3ccccc3c2)c2ccccc2[n+]1Cc1ccc2ccccc2c1 next. 0.0

Okay, and Cc1cccc(C)c1NCc1nnc(-c2ccco2)o1 ? 1.0

Further, for Cc1nc2sc(C(=O)Nc3ccccc3)c(N)c2cc1C(C)O (stereo not given) ? 0.0

Continue with Nc1ccccc1NS(=O)(=O)c1ccc(Cl)cc1 1.0
